Readings of apoptotic fraction of cells for the listed compounds
- System: LOXIMVI
- Assay Details: apoptotic fraction of cells (caspase-3 NucView488 positive); higher = more apoptosis
- Settings: 24 h; 0.0316 µM
Measurement Label: apoptotic fraction of cells

Smiles Notation	Target Desc	Result Number
Cn1cnc2c(F)c(Nc3ccc(Br)cc3Cl)c(C(=O)NOCCO)cc21	LOXIMVI	0.0293
CN(C)CCOc1ccc(-c2nc(-c3ccncc3)c(-c3ccc4c(c3)CC/C4=N\O)[nH]2)cc1	LOXIMVI	0.0361
CCCS(=O)(=O)Nc1ccc(F)c(C(=O)c2c[nH]c3ncc(Cl)cc23)c1F	LOXIMVI	0.0396
Cc1ccc(NC(=O)c2cccc(C(C)(C)C#N)c2)cc1Nc1ccc2ncn(C)c(=O)c2c1	LOXIMVI	0.0365
CCCS(=O)(=O)Nc1ccc(F)c(C(=O)c2c[nH]c3ncc(-c4ccc(Cl)cc4)cc23)c1F	LOXIMVI	0.0364

Data provenance is the supplement of paper PMC4380931.
